// reported Activity for each item listed
system: Protein cereblon/Androgen receptor (Homo sapiens), P10275+Q96SW2 [UNDEFINED MUTATION]; assay: PROTAC activity at CRBN/Androgen receptor splice variant 7 in human VCaP cells assessed as induction of AR-V7 degradation at 0.01 uM incubated for 24 hrs by Western blot analysis relative to control; assay type: cell-based

// map COc1ccc(C(C)(C)c2cc(Cl)c(OCC3CCN(C(=O)CCCCCNc4cc5c(cc4F)C(=O)N(C4CCC(=O)NC4=O)C5=O)CC3)c(C#N)c2)cc1 (stereo not drawn) to recorded Activity (system: Protein cereblon/Androgen receptor (Homo sapiens), P10275+Q96SW2 [UNDEFINED MUTATION])
< 5%

# query: Activity | item COc1ccc(C(C)(C)c2cc(Cl)c(OCC3CCN(C(=O)CCCCCNc4ccc5c(c4)C(=O)N(C4CCC(=O)NC4=O)C5=O)CC3)c(Cl)c2)cc1 (stereo not drawn) | system: Protein cereblon/Androgen receptor (Homo sapiens), P10275+Q96SW2 [UNDEFINED MUTATION]
< 5%

More entries:
Lookup: Activity / Protein cereblon/Androgen receptor (Homo sapiens), P10275+Q96SW2 [UNDEFINED MUTATION] / CC(C)(c1ccc(OCc2cncnc2)cc1)c1cc(Cl)c(OCC2CCN(C(=O)CCCCCNc3ccc4c(c3)C(=O)N(C3CCC(=O)NC3=O)C4=O)CC2)c(C#N)c1 (stereo not drawn)
84.2%

---

Known Activity of a selection of molecules
biological target: Protein cereblon/Androgen receptor (Homo sapiens, UniProt P10275+Q96SW2); assay: PROTAC activity at CRBN/AR in human 22Rv1 cells assessed as induction of AR degradation at 1 uM incubated for 24 hrs by Western blot analysis relative to control; type: cell-based
Sequence (P10275 whole entry, looked up): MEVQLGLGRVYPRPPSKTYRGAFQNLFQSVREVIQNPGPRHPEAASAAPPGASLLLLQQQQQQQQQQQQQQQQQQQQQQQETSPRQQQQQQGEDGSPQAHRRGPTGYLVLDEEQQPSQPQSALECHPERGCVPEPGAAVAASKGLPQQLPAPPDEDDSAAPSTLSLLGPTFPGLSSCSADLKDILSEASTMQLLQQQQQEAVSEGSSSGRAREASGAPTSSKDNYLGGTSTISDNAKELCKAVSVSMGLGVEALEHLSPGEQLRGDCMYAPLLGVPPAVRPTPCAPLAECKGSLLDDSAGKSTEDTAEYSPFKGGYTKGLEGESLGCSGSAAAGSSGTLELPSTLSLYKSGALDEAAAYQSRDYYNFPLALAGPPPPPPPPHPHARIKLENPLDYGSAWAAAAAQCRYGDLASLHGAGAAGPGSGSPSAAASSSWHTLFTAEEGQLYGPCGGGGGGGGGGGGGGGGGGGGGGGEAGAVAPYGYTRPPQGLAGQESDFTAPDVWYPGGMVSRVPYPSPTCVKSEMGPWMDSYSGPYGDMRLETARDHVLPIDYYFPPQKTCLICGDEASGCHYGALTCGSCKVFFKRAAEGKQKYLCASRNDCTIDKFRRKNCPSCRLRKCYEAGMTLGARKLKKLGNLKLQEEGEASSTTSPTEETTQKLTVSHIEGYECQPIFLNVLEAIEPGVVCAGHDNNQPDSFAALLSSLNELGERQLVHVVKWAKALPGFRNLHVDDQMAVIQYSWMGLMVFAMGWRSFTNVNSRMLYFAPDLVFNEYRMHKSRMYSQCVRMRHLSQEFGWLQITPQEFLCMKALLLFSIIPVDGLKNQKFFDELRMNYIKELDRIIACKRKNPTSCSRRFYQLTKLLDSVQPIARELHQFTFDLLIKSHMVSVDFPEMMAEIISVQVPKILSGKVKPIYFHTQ
Sequence (Q96SW2 whole entry, looked up): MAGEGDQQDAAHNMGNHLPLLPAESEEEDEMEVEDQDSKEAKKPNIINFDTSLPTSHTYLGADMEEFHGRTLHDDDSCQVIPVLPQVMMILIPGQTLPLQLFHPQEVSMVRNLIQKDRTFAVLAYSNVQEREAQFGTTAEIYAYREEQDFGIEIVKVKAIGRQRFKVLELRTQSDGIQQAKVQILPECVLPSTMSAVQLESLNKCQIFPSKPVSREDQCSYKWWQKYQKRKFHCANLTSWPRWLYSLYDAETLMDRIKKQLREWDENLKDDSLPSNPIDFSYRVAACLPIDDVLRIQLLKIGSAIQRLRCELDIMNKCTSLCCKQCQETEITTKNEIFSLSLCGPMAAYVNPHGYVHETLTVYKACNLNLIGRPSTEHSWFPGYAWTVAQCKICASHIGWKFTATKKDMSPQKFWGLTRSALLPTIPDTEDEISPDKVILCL
Response body: numeric value in %, unit text excluded.

Solved entries (count: 2):
Using the record for CC(C)(c1ccc(OCC2CCN(C(=O)CCCCCCNc3ccc4c(c3)C(=O)N(C3CCC(=O)NC3=O)C4=O)CC2)cc1)c1ccc(OC[C@H](O)CCl)cc1 (stereo not given in full) , report its Activity.
14.4

I am curious: what Activity value has been reported for CC(C)(c1ccc(OCC2CCN(C(=O)CCCCNc3cccc4c3C(=O)N(C3CCC(=O)NC3=O)C4=O)CC2)cc1)c1ccc(OC[C@H](O)CCl)cc1 (stereo not given in full) ?
12.4

Now turn to the next molecule.
Suppose we examine the molecule CC(C)(c1ccc(OCC2CCN(C(=O)CCCCCNc3cccc4c3C(=O)N(C3CCC(=O)NC3=O)C4=O)CC2)cc1)c1ccc(OC[C@H](O)CCl)cc1 (stereo not given in full) ; what Activity value has been reported?
11.7

---

target: Protein cereblon/Eukaryotic peptide chain release factor GTP-binding subunit ERF3A (Homo sapiens, UniProt Q96SW2+P15170); test: Molecular glue activity at CRBN/GSPT1 in human 22Rv1 cells assessed as induction of GSPT1 degradation at 0.1 uM incubated for 24 hrs by Western blot analysis relative to control; assay type: cell-based
Sequence (P15170 whole entry, looked up, one chain of several): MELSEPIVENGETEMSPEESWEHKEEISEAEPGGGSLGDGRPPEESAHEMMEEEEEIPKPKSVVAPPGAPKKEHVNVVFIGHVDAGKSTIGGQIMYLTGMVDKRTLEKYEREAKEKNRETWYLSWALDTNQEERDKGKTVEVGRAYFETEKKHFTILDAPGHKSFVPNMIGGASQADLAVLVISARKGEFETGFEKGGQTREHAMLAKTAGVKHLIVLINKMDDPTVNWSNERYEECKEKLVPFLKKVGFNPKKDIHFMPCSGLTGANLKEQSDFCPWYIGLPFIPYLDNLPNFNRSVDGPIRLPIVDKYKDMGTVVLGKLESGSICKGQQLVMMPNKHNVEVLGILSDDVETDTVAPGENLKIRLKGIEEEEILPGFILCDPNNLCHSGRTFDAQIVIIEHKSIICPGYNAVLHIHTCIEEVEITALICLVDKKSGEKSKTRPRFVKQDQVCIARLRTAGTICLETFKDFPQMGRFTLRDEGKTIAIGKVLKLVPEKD
Listed next: entries and their corresponding Activity.
Please respond with the number in % and leave the unit unwritten.

Quick one: Activity of CC(C)(c1ccc(OCC2CCN(S(C)(=O)=O)CC2)cc1)c1cc(Cl)c(OCC2CCN(C(=O)CCCCCNc3ccc4c(c3)C(=O)N(C3CCC(=O)NC3=O)C4=O)CC2)c(C#N)c1 (stereo not drawn) ?
96.7

Further cases:
State the recorded Activity for this entry: CC(C)(c1ccc(OCC2CCOCC2)cc1)c1cc(Cl)c(OCC2CCN(C(=O)CCCCCNc3ccc4c(c3)C(=O)N(C3CCC(=O)NC3=O)C4=O)CC2)c(C#N)c1 (stereo not drawn)
96.1

# input compound: COc1ccc(C(C)(C)c2cc(Cl)c(OCC3CCN(C(=O)CCCCCNc4ccc5c(c4)C(=O)N(C4CCC(=O)NC4=O)C5=O)CC3)c(C#N)c2)cc1 (stereo not drawn) ; wanted: its Activity
93.4

---

test system: Protein cereblon/Androgen receptor (Homo sapiens), P10275+Q96SW2 [UNDEFINED MUTATION]; assay: PROTAC activity at CRBN/Androgen receptor splice variant 7 in human 22Rv1 cells assessed as induction of AR-V7 degradation at 0.1 uM incubated for 24 hrs by Western blot analysis relative to control; assay type: cell-based
assay.metric: Activity

Below are worked cases with known answers.
Record request: Activity value, item CC(C)(c1ccc(OCC2CCN(S(C)(=O)=O)CC2)cc1)c1cc(Cl)c(OCC2CCN(C(=O)CCCCCNc3ccc4c(c3)C(=O)N(C3CCC(=O)NC3=O)C4=O)CC2)c(C#N)c1 (stereo not drawn)
71.9%

Can you share its Activity? I mean this molecule: COc1ccc(C(C)(C)c2cc(Cl)c(OCC3CCN(C(=O)CCCCCNc4ccc(C(=O)N[C@H]5CCC(=O)NC5=O)c(F)c4)CC3)c(C#N)c2)cc1
< 5%

Continue with the molecule presented below.
Give its Activity value. Item: CC(C)(c1ccc(OCCCCl)cc1)c1ccc(OCC2CCN(C(=O)CCCCCNc3ccc4c(c3)C(=O)N(C3CCC(=O)NC3=O)C4=O)CC2)cc1 (stereo not drawn)
5.1%

---

tested on: Protein cereblon/Androgen receptor (Homo sapiens), P10275+Q96SW2 [UNDEFINED MUTATION]; experiment: PROTAC activity at CRBN/Androgen receptor splice variant 7 in human VCaP cells assessed as induction of AR-V7 degradation at 0.1 uM incubated for 24 hrs by Western blot analysis relative to control; assay type: cell-based
assay.metric: Activity (%)
Kindly answer with a numeric value in %, unit omitted.

Please review the entries below; each comes with its answer.
For the compound COc1ccc(C(C)(C)c2cc(Cl)c(OCC3CCN(C(=O)CCCCCNc4ccc5c(c4)C(=O)N(C4CCC(=O)NC4=O)C5=O)CC3)c(C#N)c2)cc1 (stereo unspecified) , what Activity is on record?
81.3

Report Activity for COc1ccc(C(C)(C)c2cc(Cl)c(OCC3CCN(C(=O)CCCCCNc4ccc5c(c4)C(=O)N(C4CCC(=O)NC4=O)C5=O)CC3)c(Cl)c2)cc1 (stereo unspecified) please.
69.1

So what's the measured Activity for this one? CC(C)(c1ccc(OCC2CN(S(C)(=O)=O)C2)cc1)c1cc(Cl)c(OCC2CCN(C(=O)CCCCCNc3ccc4c(c3)C(=O)N(C3CCC(=O)NC3=O)C4=O)CC2)c(C#N)c1 (stereo unspecified)
48

// Activity lookup, key: CC(C)(c1ccc(OCC2CCN(S(C)(=O)=O)CC2)cc1)c1cc(Cl)c(OCC2CCN(C(=O)CCCCCNc3ccc4c(c3)C(=O)N(C3CCC(=O)NC3=O)C4=O)CC2)c(C#N)c1 (stereo unspecified)
40.6

***
Give its Activity value. Item: CC(C)(c1ccc(OCC2COC2)cc1)c1cc(Cl)c(OCC2CCN(C(=O)CCCCCNc3ccc4c(c3)C(=O)N(C3CCC(=O)NC3=O)C4=O)CC2)c(C#N)c1 (stereo unspecified)
27.8

---

tested on: Protein cereblon/Androgen receptor (Homo sapiens), P10275+Q96SW2 [UNDEFINED MUTATION]; test: PROTAC activity at CRBN/Androgen receptor splice variant 7 in human VCaP cells assessed as induction of AR-V7 degradation at 1 uM incubated for 24 hrs by Western blot analysis relative to control; assay type: cell-based
assay.metric: Activity (%)
Use % as the unit, but write only the number.

Recorded Activity of CC(C)(c1ccc(OCC2CCN(C3CN(C(=O)CCCCNc4ccc5c(c4)C(=O)N(C4CCC(=O)NC4=O)C5=O)C3)CC2)cc1)c1ccc(OC[C@H](O)CCl)cc1 (stereo not given in full) , please.
14.9

Shift focus to the following entry.
# get_value(readout='Activity', item= CC(C)(c1ccc(OCC2CCN(C3CN(C(=O)CCNc4ccc5c(c4)C(=O)N(C4CCC(=O)NC4=O)C5=O)C3)CC2)cc1)c1ccc(OC[C@H](O)CCl)cc1 (stereo not given in full) )
20

---

assay: Half-life in male ICR mouse at 2 mg/kg, iv by LC-MS/MS analysis; type: ADME, organism-based; conditions: in vivo
assay.metric: half-life (min)
// units = min; emit number, no label

Any idea what half-life was measured for COc1ccc(C(C)(C)c2cc(Cl)c(OCC3CCN(C(=O)CCCCCNc4ccc5c(c4)C(=O)N(C4CCC(=O)NC4=O)C5=O)CC3)c(C#N)c2)cc1 (stereo unspecified) ?
54

---

molecular target: Protein cereblon/Androgen receptor (Homo sapiens, UniProt P10275+Q96SW2); assay: PROTAC activity at CRBN/AR in human VCaP cells assessed as induction of AR degradation at 0.01 uM incubated for 24 hrs by Western blot analysis relative to control; assay type: cell-based
Property: Activity; scope: individual compounds
Respond numerically; units are % and should not be typed.

Would you please look over these solved cases?
Fill in the blank: the reported Activity of COc1ccc(C(C)(C)c2cc(Cl)c(OCC3CCN(C(=O)CCCCCNc4cc5c(cc4F)C(=O)N(C4CCC(=O)NC4=O)C5=O)CC3)c(C#N)c2)cc1 (stereo unspecified) is ____.
25.1

Can you look up the measured Activity of CC(C)(c1ccc(OCC2COC2)cc1)c1cc(Cl)c(OCC2CCN(C(=O)CCCCCNc3ccc4c(c3)C(=O)N(C3CCC(=O)NC3=O)C4=O)CC2)c(C#N)c1 (stereo unspecified) for me?
82.5

More entries:
Which Activity is listed for COc1ccc(C(C)(C)c2cc(Cl)c(OCC3CCN(C(=O)CCCCCNc4ccc5c(c4)C(=O)N(C4CCC(=O)NC4=O)C5=O)CC3)c(C#N)c2)cc1 (stereo unspecified) ?
89.4

Which Activity is listed for CC(C)(c1ccc(OCc2ccncn2)cc1)c1cc(Cl)c(OCC2CCN(C(=O)CCCCCNc3ccc4c(c3)C(=O)N(C3CCC(=O)NC3=O)C4=O)CC2)c(C#N)c1 (stereo unspecified) ?
61.3
